Measured values drawn from paper PMC6451127 for this set.

Substrate: CNc1ncnc2c1ncn2[C@@H]1O[C@H](COP(=O)(O)O)[C@@H](O)[C@H]1O
Experiment Notes: purified protein
Type: biochemical, Arabidopsis thaliana
Recorded Conditions: 20 mM potassium phosphate pH 7.2, 25 °C
Value Kind: Km (µM)
Use µM as the unit, but write only the number.

{"Protein": "AtMAPDA (Arabidopsis thaliana; T98A) (protein) MEWIQSLPKIELHAHLNGSIRDSTLLELARVLGEKGVIVFADVEHVIQKNDRSLVEVFKLFDLIHKLTTDHKTVTRITREVVEDFALENVVYLELRTAPKRSDSIGMSKRSYMEAVIQGLRSVSEVDIDFVTASDSQKLHNAGDGIGRKKIYVRLLLSIDRRETTESAMETVKLALEMRDVGVVGIDLSGNPLVGEWSTFLPALQYAKDNDLHITLHCGEVPNPKEIQAMLDFKPHRIGHACFFKDEDWTKLKSFRIPVEICLTSNIVTKSISSIDIHHFADLYNAKHPLILCTDDFGVFSTSLSNEYALAVRSLGLSKSETFALARAAIDATFAEDEVKQQLRFIFDSASPEHV", "Km [µM]": 4.52}

Now look at this entry.
Asked: Please give the measured Km for this protein: AtMAPDA (Arabidopsis thaliana; N17A) (protein) MEWIQSLPKIELHAHLAGSIRDSTLLELARVLGEKGVIVFADVEHVIQKNDRSLVEVFKLFDLIHKLTTDHKTVTRITREVVEDFALENVVYLELRTTPKRSDSIGMSKRSYMEAVIQGLRSVSEVDIDFVTASDSQKLHNAGDGIGRKKIYVRLLLSIDRRETTESAMETVKLALEMRDVGVVGIDLSGNPLVGEWSTFLPALQYAKDNDLHITLHCGEVPNPKEIQAMLDFKPHRIGHACFFKDEDWTKLKSFRIPVEICLTSNIVTKSISSIDIHHFADLYNAKHPLILCTDDFGVFSTSLSNEYALAVRSLGLSKSETFALARAAIDATFAEDEVKQQLRFIFDSASPEHV
Given back: 7.12
